TARGET UNDER TEST: human Fatty Acid Synthase (Homo sapiens)
Construct: made in house
Sequence (P49327 whole entry): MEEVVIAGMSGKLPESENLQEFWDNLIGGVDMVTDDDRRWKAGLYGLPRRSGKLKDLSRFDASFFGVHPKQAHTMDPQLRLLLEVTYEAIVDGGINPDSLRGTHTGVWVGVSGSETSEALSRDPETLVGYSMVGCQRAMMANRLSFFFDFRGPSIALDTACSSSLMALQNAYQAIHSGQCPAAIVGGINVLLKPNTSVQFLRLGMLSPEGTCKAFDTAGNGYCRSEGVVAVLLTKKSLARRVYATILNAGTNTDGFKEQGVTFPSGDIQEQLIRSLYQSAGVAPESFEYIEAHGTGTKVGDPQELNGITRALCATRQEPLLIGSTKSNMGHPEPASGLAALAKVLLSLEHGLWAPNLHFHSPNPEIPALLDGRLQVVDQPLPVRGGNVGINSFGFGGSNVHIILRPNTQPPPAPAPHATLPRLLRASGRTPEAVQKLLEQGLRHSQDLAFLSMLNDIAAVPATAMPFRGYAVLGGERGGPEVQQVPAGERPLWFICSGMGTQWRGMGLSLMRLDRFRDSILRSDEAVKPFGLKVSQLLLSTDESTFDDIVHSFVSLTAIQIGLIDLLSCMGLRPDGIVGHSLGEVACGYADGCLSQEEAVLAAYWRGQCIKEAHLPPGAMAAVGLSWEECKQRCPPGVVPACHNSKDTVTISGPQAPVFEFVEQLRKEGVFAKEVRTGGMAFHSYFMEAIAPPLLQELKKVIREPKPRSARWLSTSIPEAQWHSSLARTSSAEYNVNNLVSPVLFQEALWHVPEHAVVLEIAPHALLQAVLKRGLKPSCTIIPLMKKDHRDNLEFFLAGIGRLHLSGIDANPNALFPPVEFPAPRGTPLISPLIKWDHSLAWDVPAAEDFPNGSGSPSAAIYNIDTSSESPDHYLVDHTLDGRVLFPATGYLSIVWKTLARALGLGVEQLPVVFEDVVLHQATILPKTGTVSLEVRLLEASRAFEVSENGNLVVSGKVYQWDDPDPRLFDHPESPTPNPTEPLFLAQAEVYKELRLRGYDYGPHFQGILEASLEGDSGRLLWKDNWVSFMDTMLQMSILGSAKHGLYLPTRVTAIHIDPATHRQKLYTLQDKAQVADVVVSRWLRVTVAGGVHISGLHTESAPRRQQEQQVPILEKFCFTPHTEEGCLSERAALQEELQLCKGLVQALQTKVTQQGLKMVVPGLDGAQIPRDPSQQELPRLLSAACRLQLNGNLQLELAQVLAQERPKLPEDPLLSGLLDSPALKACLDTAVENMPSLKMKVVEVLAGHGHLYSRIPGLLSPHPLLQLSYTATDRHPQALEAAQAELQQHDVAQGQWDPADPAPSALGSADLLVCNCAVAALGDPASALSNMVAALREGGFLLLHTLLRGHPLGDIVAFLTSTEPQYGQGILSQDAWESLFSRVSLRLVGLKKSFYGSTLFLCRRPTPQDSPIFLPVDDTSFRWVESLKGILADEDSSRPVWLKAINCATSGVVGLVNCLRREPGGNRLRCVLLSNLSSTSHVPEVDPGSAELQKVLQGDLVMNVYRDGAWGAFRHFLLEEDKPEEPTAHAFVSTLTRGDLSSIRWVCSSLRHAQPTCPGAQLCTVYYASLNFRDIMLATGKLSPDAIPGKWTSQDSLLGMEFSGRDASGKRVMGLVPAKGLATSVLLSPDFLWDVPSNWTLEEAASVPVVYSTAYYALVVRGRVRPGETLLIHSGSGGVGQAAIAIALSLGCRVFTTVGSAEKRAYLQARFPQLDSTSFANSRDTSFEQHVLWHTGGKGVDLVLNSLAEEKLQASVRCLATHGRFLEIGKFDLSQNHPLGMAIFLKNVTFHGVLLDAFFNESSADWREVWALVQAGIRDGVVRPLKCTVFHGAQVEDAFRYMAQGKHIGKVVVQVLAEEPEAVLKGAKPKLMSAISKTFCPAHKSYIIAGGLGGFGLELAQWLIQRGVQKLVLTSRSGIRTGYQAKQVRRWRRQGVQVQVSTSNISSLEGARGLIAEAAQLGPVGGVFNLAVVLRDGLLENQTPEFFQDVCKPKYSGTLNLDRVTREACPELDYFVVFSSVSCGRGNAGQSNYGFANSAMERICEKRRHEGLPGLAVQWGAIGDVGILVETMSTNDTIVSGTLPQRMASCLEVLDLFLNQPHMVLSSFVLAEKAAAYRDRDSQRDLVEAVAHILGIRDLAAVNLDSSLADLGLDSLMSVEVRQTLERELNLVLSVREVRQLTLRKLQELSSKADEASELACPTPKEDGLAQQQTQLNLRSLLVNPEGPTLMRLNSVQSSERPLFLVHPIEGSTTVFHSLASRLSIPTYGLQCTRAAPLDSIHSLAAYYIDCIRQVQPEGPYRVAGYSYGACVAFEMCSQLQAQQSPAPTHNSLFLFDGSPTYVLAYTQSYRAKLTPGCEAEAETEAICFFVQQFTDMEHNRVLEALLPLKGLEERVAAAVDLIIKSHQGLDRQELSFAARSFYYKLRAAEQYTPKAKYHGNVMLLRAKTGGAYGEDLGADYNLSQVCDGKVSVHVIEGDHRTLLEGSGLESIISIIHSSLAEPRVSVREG
ASSAY DETAILS: Human FAS enzyme assay (decrease in NADPH fluorescence)
Type: biochemical
CONDITIONS: % inhibition at a concentration of 100 μmolar
MEASURED ATTRIBUTE: inhibition at 100 µM (%)

Examples with answers:
1. Cc1ccc(C(=O)N2CCC(c3ccc(C#N)cc3)CC2)cc1NC(=O)NCCCn1cccn1 | 96.2
2. Cc1ccc(NC(=O)N2CCCC2)cc1C(=O)N1CCC(c2ccc(C#N)cc2)CC1 | 79.6

[1] Cc1ccc(C(=O)N2CCC(c3ccc(C#N)cc3)CC2)cc1NC(=O)N[C@H]1CC[C@H](N)C1
[2] CCS(=O)(=O)NCCN(C)C(=O)Nc1cc(C(=O)N2CCC(c3ccc(C#N)cc3)CC2)ccc1C
[in] Identify the entry with the larger inhibition at 100 µM. Options: 1 and 2 Answer format: the label of the selected item.
[out] 1
(1: 93.9%, 2: 64.6%)
